# Protocol: self-splicing fitness, log relative to wild type (ln ratio); higher = more splicing; Tetrahymena group I intron in knt gene, E. coli kanamycin selection, DiMSum; sequences stand for … in CUCUCU…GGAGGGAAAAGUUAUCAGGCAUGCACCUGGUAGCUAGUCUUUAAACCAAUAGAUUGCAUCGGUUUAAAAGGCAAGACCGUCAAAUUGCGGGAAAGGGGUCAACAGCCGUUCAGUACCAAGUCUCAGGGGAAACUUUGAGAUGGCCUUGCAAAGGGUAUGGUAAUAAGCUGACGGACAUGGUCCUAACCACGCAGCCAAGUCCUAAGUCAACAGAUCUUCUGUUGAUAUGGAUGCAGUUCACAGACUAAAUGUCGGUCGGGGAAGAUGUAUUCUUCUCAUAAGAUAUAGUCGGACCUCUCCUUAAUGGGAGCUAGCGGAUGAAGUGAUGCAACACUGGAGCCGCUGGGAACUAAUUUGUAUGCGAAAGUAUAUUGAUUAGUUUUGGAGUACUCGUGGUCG;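 note: selection with 25 µg/mL kanamycin versus none on LB agar overnight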
# Reported conditions: 37 °C
Returns true if the recorded self-splicing fitness (ln) is greater than or equal to -0.8, and false otherwise.

UGUGAGCAAUAUUACGAGAG	false
GCCGAGCAAUAUUACGAACU	true
AAUGAGCAAUAUUACGUCUG	false
ACAAAGCAAUAUUACGAUCA	true
ACCUAGCAAUAUUACGCUUC	false

Tell me whether self-splicing fitness (ln) is at least -0.8 here: UAGAAGCAAUAUUACGACGG
true

Evaluate GGCGAGCAAUAUUACGUUAA : self-splicing fitness (ln) at minimum -0.8?
false
